This section presents molecules with their documented Kp at 0.5 h values.
test protocol: Ratio of drug uptake in C57BL/6JRj mouse brain to plasma at 10 mg/kg, ip after 30 mins by LC-MS analysis
Type: ADME, organism-based
setup conditions: read-out: BPR

smiles representation: CC(C)(C)OC(=O)Cc1cn2nc(-c3ccc(Cl)cc3)ccc2n1
Kp at 0.5 h: 3.68
//
smiles representation: O=C(O)Cc1cn2nc(-c3ccc(Cl)cc3)ccc2n1
Kp at 0.5 h: 0.008

---

Measured pKi (GHB high-affinity binding site (rat))

compound: O=C(O)Cc1cn2nc(-c3ccc(Cl)c(Cl)c3)ccc2n1
pKi: 6.77

compound: N=c1ccc(-c2cccc(Cl)c2)nn1CCCC(=O)O
pKi: 4.66

compound: COc1ccc(-c2ccc3nc(CC(=O)O)cn3n2)cc1
pKi: 6.09

compound: N=c1ccc(-c2ccc(Cl)cc2)nn1CCCC(=O)O
pKi: 4.99

compound: O=C(O)Cc1cn2nc(-c3cccc(OCc4ccccc4)c3)ccc2n1
pKi: 6.33

compound: N=c1ccc(-c2cccc(OCc3ccccc3)c2)nn1CCCC(=O)O
pKi: 5.39

compound: O=C(O)CC1CN2N=C(c3ccccc3)C=CC2=N1 (configuration not stated)
pKi: 3.41

---

This section presents compounds with their documented concentration at 0.5 h values.
test protocol: Plasma concentration in C57BL/6JRj mouse at 10 mg/kg, ip after 30 mins by LC-MS analysis
Type: ADME, organism-based

smiles representation: O=C(O)Cc1cn2nc(-c3ccc(Cl)cc3)ccc2n1
concentration at 0.5 h, ng/mL: 7600
//
smiles representation: CC(C)(C)OC(=O)Cc1cn2nc(-c3ccc(Cl)cc3)ccc2n1
concentration at 0.5 h, ng/mL: 212

---

system tested: GHB high-affinity binding site (rat)
Classes (Ki): low class = under 2 µM, middle class = from 2 µM up to 10 µM, high class = 10 µM and over

compound: N=c1ccc(-c2ccc(Cl)cc2)nn1CCCC(=O)O
class: high class
--
compound: O=C(O)Cc1cn2nc(-c3ccc(OCc4ccccc4)cc3)ccc2n1
class: middle class
--
compound: COc1ccc(C2=NN3CC(CC(=O)O)N=C3C=C2)cc1 (centres undefined)
class: high class
--
compound: N=c1ccc(-c2ccccc2)nn1CCCC(=O)O
class: high class
--
compound: O=C(O)Cc1cn2nc(-c3cccc(OCc4ccccc4)c3)ccc2n1
class: low class
--
compound: O=C(O)Cc1cn2nc(-c3cccc(Cl)c3)ccc2n1
class: low class
--
compound: O=C(O)CC1CN2N=C(c3ccc(Cl)cc3)C=CC2=N1 (centres undefined)
class: high class
--
compound: O=C(O)CC1CN2N=C(c3cccc(Cl)c3)C=CC2=N1 (centres undefined)
class: high class
--
compound: N=c1ccc(-c2cccc([N+](=O)[O-])c2)nn1CCCC(=O)O
class: high class
--
compound: COc1cccc(-c2ccc3nc(CC(=O)O)cn3n2)c1
class: low class
--
compound: O=C(O)CCC(O)c1ccc(OCc2ccccc2)cc1 (centres undefined)
class: low class
--
compound: N=c1ccc(-c2ccc(OCc3ccccc3)cc2)nn1CCCC(=O)O
class: middle class
--
compound: N=c1ccc(-c2ccc(O)cc2)nn1CCCC(=O)O
class: high class

---

system tested: GHB high-affinity binding site (rat)
One threshold, 20 µM, splits the recorded Ki values: lower ones are yes, equal or higher ones are no.

compound: N=c1ccc(-c2cccc(N)c2)nn1CCCC(=O)O
system tested: GHB high-affinity binding site (rat)
class: no
--
compound: COc1ccc(-c2ccc3nc(CC(=O)O)cn3n2)cc1
system tested: GHB high-affinity binding site (rat)
class: yes
--
compound: N=c1ccc(-c2ccc([N+](=O)[O-])cc2)nn1CCCC(=O)O
system tested: GHB high-affinity binding site (rat)
class: yes
--
compound: N=c1ccc(-c2cccc(OCc3ccccc3)c2)nn1CCCC(=O)O
system tested: GHB high-affinity binding site (rat)
class: yes
--
compound: COc1cccc(C2=NN3CC(CC(=O)O)N=C3C=C2)c1 (configuration not stated)
system tested: GHB high-affinity binding site (rat)
class: no
--
compound: O=C(O)Cc1cn2nc(-c3ccc(Cl)cc3)ccc2n1
system tested: GHB high-affinity binding site (rat)
class: yes
--
compound: On1cc(C2CCNCC2)c(-c2cccc(-c3ccccc3)c2)n1
system tested: GHB high-affinity binding site (rat)
class: no
--
compound: N=c1ccc(-c2cccc(Cl)c2)nn1CCCC(=O)O
system tested: GHB high-affinity binding site (rat)
class: no
--
compound: O=C(O)Cc1cn2nc(-c3ccc(Cl)c(Cl)c3)ccc2n1
system tested: GHB high-affinity binding site (rat)
class: yes
--
compound: O=C(O)CC1CN2N=C(c3ccccc3)C=CC2=N1 (configuration not stated)
system tested: GHB high-affinity binding site (rat)
class: no
--
compound: O=C(O)Cc1cn2ccccc2n1
system tested: GHB high-affinity binding site (rat)
class: no
--
compound: N=c1ccc(-c2cccc(O)c2)nn1CCCC(=O)O
system tested: GHB high-affinity binding site (rat)
class: yes

---

test protocol: Metabolic stability in mouse plasma assessed as compound remaining at 10 uM preincubated for 5 mins followed by NADPH addition and measured at 60 mins by UHPLC-MS/MS analysis
Format: ADME, cell-free
setup conditions: read-out: Stability
metric name: remaining at 1 h, 10 µM

smiles representation: CC(C)(C)OC(=O)Cc1cn2nc(-c3ccc(Cl)cc3)ccc2n1
experimental value: 51%

smiles representation: O=C(O)Cc1cn2nc(-c3ccc(Cl)cc3)ccc2n1
experimental value: 97%

---

system tested: GABA-A receptor; alpha-1/beta-2/gamma-2 (Homo sapiens, UniProt P14867+P18507+P47870)
Sequence (P14867 whole entry): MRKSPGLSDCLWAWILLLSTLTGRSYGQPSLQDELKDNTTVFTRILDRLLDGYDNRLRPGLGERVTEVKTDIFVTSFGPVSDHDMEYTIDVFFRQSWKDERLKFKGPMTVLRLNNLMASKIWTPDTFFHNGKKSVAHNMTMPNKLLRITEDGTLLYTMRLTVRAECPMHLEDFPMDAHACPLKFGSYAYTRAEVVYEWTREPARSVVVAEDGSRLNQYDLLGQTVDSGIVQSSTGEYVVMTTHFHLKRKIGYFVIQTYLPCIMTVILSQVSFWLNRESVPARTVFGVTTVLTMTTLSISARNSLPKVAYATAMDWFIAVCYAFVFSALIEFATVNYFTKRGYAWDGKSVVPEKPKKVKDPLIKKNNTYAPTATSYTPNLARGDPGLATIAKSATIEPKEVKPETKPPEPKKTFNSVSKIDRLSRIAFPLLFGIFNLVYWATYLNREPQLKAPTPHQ
Sequence (P47870 whole entry): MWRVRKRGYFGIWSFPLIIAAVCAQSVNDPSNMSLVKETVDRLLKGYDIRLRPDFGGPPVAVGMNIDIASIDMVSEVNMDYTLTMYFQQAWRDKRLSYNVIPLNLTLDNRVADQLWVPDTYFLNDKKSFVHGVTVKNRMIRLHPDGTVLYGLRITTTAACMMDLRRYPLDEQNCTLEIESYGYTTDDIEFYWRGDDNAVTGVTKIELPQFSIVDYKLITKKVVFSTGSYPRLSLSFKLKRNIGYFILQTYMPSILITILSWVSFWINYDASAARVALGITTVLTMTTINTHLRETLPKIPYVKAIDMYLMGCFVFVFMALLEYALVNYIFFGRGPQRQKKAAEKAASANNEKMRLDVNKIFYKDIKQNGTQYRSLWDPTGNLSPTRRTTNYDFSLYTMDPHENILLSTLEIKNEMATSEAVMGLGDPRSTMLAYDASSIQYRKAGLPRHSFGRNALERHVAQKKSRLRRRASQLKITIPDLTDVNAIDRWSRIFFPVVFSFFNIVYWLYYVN
Sequence (P18507 whole entry): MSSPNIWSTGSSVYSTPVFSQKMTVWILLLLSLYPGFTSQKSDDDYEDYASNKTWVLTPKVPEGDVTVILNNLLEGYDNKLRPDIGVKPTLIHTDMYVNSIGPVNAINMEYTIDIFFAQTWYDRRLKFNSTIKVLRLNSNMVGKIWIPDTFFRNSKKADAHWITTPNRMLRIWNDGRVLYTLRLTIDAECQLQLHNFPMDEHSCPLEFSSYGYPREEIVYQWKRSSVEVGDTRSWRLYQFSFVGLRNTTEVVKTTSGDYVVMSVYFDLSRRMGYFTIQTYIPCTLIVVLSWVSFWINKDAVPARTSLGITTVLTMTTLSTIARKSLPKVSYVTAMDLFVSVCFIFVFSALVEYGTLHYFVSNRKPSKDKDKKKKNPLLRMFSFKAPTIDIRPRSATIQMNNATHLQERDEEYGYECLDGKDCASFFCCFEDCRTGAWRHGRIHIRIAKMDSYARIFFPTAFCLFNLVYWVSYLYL
metric name: IC50 (µM)

smiles representation: N=c1ccc(-c2ccc(O)cc2)nn1CCCC(=O)O
experimental value: 11
//
smiles representation: N=c1ccc(-c2cccc(N)c2)nn1CCCC(=O)O
experimental value: 30
//
smiles representation: N=c1ccc(-c2ccc([N+](=O)[O-])cc2)nn1CCCC(=O)O
experimental value: 30
//
smiles representation: N=c1ccc(-c2cccc(O)c2)nn1CCCC(=O)O
experimental value: 3.9
//
smiles representation: N=c1ccc(-c2cccc([N+](=O)[O-])c2)nn1CCCC(=O)O
experimental value: 4.4

---

test protocol: Metabolic stability in mouse plasma assessed as compound remaining at 10 uM preincubated for 5 mins followed by NADPH addition and measured at 120 mins by UHPLC-MS/MS analysis
Format: ADME, cell-free
setup conditions: read-out: Stability

smiles representation: CC(C)(C)OC(=O)Cc1cn2nc(-c3ccc(Cl)cc3)ccc2n1
remaining at 2 h, 10 µM [%]: 36
--
smiles representation: O=C(O)Cc1cn2nc(-c3ccc(Cl)cc3)ccc2n1
remaining at 2 h, 10 µM [%]: 99

---

system tested: GABA-A receptor; anion channel
test protocol: Displacement of [3H]muscimol from orthosteric binding site of GABA(A) receptor in Sprague-Dawley rat cortical synaptic membranes by liquid scintillation counting
pKi: −log10 of the molar value.

compound: COc1cccc(-c2ccc3nc(CC(=O)O)cn3n2)c1
system tested: GABA-A receptor; anion channel
sign qualifier: <
pKi: 4.00
//
compound: O=C(O)CCC(O)c1ccc(OCc2ccccc2)cc1 (stereo unspecified)
system tested: GABA-A receptor; anion channel
sign qualifier: <
pKi: 4.00
//
compound: N=c1ccc(-c2ccc(Cl)cc2)nn1CCCC(=O)O
system tested: GABA-A receptor; anion channel
sign qualifier: =
pKi: 6.21
//
compound: N=c1ccc(-c2ccc(O)cc2)nn1CCCC(=O)O
system tested: GABA-A receptor; anion channel
sign qualifier: =
pKi: 6.66
//
compound: O=C(O)Cc1cn2nc(-c3cccc(OCc4ccccc4)c3)ccc2n1
system tested: GABA-A receptor; anion channel
sign qualifier: <
pKi: 4.00
//
compound: O=C(O)CC1CN2N=C(c3ccccc3)C=CC2=N1 (stereo unspecified)
system tested: GABA-A receptor; anion channel
sign qualifier: <
pKi: 4.00
//
compound: N=c1ccc(-c2cccc([N+](=O)[O-])c2)nn1CCCC(=O)O
system tested: GABA-A receptor; anion channel
sign qualifier: =
pKi: 7.11
//
compound: N=c1ccc(-c2ccccc2)nn1CCCC(=O)O
system tested: GABA-A receptor; anion channel
sign qualifier: =
pKi: 6.09
//
compound: O=C(O)Cc1cn2ncccc2n1
system tested: GABA-A receptor; anion channel
sign qualifier: <
pKi: 4.00
//
compound: N=c1ccc(-c2ccc([N+](=O)[O-])cc2)nn1CCCC(=O)O
system tested: GABA-A receptor; anion channel
sign qualifier: =
pKi: 6.12
//
compound: N=c1ccc(-c2cccc(O)c2)nn1CCCC(=O)O
system tested: GABA-A receptor; anion channel
sign qualifier: =
pKi: 6.89
//
compound: N=c1ccc(-c2ccc(OCc3ccccc3)cc2)nn1CCCC(=O)O
system tested: GABA-A receptor; anion channel
sign qualifier: =
pKi: 7.80
//
compound: COc1ccc(-c2ccc3nc(CC(=O)O)cn3n2)cc1
system tested: GABA-A receptor; anion channel
sign qualifier: <
pKi: 4.00
//
compound: O=C(O)Cc1cn2ccccc2n1
system tested: GABA-A receptor; anion channel
sign qualifier: <
pKi: 4.00
//
compound: N=c1ccc(-c2cccc(Cl)c2)nn1CCCC(=O)O
system tested: GABA-A receptor; anion channel
sign qualifier: =
pKi: 7.41
//
compound: O=C(O)Cc1cn2nc(-c3ccc(Cl)c(Cl)c3)ccc2n1
system tested: GABA-A receptor; anion channel
sign qualifier: <
pKi: 4.00
//
compound: N=c1ccc(-c2cccc(OCc3ccccc3)c2)nn1CCCC(=O)O
system tested: GABA-A receptor; anion channel
sign qualifier: =
pKi: 6.06
//
compound: COc1ccc(C2=NN3CC(CC(=O)O)N=C3C=C2)cc1 (stereo unspecified)
system tested: GABA-A receptor; anion channel
sign qualifier: <
pKi: 4.00
//
compound: O=C(O)Cc1cn2nc(-c3ccc(OCc4ccccc4)cc3)ccc2n1
system tested: GABA-A receptor; anion channel
sign qualifier: <
pKi: 4.00
//
compound: O=C(O)CC1CN2N=C(c3cccc(Cl)c3)C=CC2=N1 (stereo unspecified)
system tested: GABA-A receptor; anion channel
sign qualifier: <
pKi: 4.00
//
compound: O=C(O)Cc1cn2nc(-c3ccc(Cl)cc3)ccc2n1
system tested: GABA-A receptor; anion channel
sign qualifier: <
pKi: 4.00
//
compound: O=C(O)Cc1cn2nc(-c3cccc(Cl)c3)ccc2n1
system tested: GABA-A receptor; anion channel
sign qualifier: <
pKi: 4.00
//
compound: COc1cccc(C2=NN3CC(CC(=O)O)N=C3C=C2)c1 (stereo unspecified)
system tested: GABA-A receptor; anion channel
sign qualifier: <
pKi: 4.00
//
compound: On1cc(C2CCNCC2)c(-c2cccc(-c3ccccc3)c2)n1
system tested: GABA-A receptor; anion channel
sign qualifier: =
pKi: 7.52
//
compound: N=c1ccc(-c2cccc(N)c2)nn1CCCC(=O)O
system tested: GABA-A receptor; anion channel
sign qualifier: =
pKi: 5.96
//
compound: O=C(O)CC1CN2N=C(c3ccc(Cl)cc3)C=CC2=N1 (stereo unspecified)
system tested: GABA-A receptor; anion channel
sign qualifier: <
pKi: 4.00
